- tgt: Gal3S(b1-4)Glc6S
- experiment: glycan array binding signal (z-score within array); higher = stronger binding
- conditionSet: glycan notation: IUPAC condensed, linker removed
Only a selection was taken, and the strongest signals are over-represented in it overall.
Outcome: Condition met for glycan array binding signal (z-score) of at least 3; Condition not met for anything lower.

# count of solved cases: 3
MAL-II (Maackia amurensis), P93248 (protein) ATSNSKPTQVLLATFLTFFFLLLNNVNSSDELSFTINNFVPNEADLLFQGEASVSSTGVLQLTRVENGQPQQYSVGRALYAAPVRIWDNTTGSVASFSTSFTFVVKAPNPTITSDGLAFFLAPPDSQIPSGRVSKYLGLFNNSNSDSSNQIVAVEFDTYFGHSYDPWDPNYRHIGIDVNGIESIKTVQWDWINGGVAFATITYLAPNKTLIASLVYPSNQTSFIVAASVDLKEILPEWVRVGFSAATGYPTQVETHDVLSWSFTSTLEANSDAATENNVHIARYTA: Condition met
Langerin K299A/K313A (Homo sapiens), Q9UJ71 (protein) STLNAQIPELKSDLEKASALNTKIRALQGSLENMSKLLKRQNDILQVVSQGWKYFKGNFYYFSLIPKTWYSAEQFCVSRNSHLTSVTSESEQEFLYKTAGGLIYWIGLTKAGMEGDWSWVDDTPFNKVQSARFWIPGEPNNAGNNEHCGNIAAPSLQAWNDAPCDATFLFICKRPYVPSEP: Condition not met
MAA (Maackia amurensis), P0DKL3 (protein) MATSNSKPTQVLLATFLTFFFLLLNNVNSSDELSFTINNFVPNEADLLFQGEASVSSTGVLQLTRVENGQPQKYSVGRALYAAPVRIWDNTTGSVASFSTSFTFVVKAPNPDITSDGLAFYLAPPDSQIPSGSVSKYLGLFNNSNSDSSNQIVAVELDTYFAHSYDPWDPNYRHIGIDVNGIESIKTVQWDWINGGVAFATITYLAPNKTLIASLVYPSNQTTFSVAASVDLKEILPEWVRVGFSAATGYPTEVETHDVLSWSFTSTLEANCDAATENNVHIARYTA: Condition met

# check: glycan array binding signal (z-score) of OGAA (protein) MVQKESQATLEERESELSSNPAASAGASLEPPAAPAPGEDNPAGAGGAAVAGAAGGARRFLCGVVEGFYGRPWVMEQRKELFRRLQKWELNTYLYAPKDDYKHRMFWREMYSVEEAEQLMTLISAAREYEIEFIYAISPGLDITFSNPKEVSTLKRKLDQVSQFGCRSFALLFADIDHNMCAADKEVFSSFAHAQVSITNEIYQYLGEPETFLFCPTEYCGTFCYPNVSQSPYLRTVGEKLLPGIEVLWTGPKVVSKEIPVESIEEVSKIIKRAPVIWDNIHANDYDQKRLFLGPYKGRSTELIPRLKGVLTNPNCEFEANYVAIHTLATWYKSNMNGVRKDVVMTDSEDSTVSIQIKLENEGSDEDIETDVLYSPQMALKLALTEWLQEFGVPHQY is greater than or equal to 3
Condition not met

Next up: SP15308B-bot-339-22-339 (Bacteroides ovatus) (protein) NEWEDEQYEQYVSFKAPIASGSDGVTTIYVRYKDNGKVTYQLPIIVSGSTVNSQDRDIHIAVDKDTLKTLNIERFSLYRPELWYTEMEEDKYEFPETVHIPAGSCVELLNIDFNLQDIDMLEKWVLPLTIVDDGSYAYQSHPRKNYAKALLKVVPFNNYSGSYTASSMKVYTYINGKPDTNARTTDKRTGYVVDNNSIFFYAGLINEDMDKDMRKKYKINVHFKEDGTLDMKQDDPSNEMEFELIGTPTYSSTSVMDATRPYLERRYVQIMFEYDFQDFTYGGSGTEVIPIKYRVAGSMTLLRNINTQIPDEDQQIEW
Condition not met
